- assayComment: Pharmacokinetic study in mice
- Assay type: in vivo, SD mice
- settings: female, SD, mouse, iv, i.v. 1 mg/kg, plasma
propertyName: half-life

What does the record list as half-life for COc1cc(/C=C/C(=O)CC(=O)/C=C/c2ccc(/C=C/C(=O)NO)cc2)ccc1O [DMC-HA] ?
3.2 h

----------
- targetEntity: HDAC1 (Homo sapiens, UniProt Q13547)
- Sequence (Q13547 whole entry): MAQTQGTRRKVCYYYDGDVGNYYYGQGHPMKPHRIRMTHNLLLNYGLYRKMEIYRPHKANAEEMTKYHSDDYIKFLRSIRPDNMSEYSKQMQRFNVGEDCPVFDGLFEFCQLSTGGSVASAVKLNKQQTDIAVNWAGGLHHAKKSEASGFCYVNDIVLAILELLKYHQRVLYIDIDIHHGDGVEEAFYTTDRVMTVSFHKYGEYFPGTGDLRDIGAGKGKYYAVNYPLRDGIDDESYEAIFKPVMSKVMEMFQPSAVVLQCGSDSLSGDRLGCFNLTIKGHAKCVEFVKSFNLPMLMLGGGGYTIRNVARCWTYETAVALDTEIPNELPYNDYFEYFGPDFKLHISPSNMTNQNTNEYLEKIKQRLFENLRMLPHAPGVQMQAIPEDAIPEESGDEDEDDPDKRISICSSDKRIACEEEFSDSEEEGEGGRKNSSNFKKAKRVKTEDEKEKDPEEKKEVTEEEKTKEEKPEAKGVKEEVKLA
propertyName: pIC50
One number for each entry, as −log10 of the molar value.

What does the record list as pIC50 for COc1cc(/C=C/C(=O)CC(=O)/C=C/c2ccc(/C=C/C(=O)NO)cc2)ccc1O [DMC-HA] ?
6.29

----------
- assayComment: Hepatic microsome stability assay, human
- Assay type: in vitro ADME
- settings: human liver microsomes, NADPH, 37°C, pH 7.4; read-out: Human Liver Microsomal Stability T1/2
propertyName: half-life (min)
Give bare numbers, in min.

What does the record list as half-life for COc1cc(/C=C/C(=O)CC(=O)/C=C/c2ccc(O)c(OC)c2)ccc1O [Curcumin, reference compound] ?
17.2

----------
- assayComment: Pharmacokinetic study in mice
- Type: in vivo, SD mice
- settings: female, SD, mouse, po, p.o. 10 mg/kg, plasma
propertyName: half-life (h)
Numbers only, in h.

What does the record list as half-life for COc1cc(/C=C/C(=O)CC(=O)/C=C/c2ccc(/C=C/C(=O)NO)cc2)ccc1O ?
4.1

----------
- assayComment: Pharmacokinetic study in mice
- Format: in vivo, SD mice
- settings: female, SD, mouse, plasma, po, 10 mg/kg, p.o. 10 mg/kg, read-out: Tmax
propertyName: Tmax (min)
Give bare numbers, in min.

What does the record list as Tmax for COc1cc(/C=C/C(=O)CC(=O)/C=C/c2ccc(/C=C/C(=O)NO)cc2)ccc1O ?
40.2

----------
Kindly supply the reported IC50 values for the records listed here.
- targetEntity: SIRT1 (Homo sapiens)
- Sequence (Q96EB6 whole entry): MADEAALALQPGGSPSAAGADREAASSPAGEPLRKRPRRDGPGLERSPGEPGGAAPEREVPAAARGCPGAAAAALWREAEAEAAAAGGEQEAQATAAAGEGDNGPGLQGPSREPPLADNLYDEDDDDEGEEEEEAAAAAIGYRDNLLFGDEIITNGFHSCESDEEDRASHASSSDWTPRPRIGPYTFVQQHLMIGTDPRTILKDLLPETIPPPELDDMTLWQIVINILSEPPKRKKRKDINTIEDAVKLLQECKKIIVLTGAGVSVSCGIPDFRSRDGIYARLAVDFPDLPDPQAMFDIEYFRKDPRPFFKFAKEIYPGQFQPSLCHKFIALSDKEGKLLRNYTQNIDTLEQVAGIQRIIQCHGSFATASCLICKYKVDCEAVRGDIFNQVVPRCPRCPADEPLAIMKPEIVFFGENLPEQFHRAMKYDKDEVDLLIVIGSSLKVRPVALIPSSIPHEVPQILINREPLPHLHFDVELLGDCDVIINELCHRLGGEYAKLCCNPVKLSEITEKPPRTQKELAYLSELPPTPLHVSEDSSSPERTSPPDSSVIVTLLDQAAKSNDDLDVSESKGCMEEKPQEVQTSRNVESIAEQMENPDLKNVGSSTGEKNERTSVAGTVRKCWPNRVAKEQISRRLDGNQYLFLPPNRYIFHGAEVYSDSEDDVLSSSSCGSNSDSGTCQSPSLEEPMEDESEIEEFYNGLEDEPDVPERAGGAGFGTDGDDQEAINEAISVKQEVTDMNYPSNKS
- assayComment: HDACs inhibition assay, SIRT1

O=C(CCCCCCC(=O)Nc1ccccc1)NO [Vorinostat, suberoylanilide hydroxamic acid, reference compound] : > 10 µM

What does the record list as IC50 for COc1cc(/C=C/C(=O)CC(=O)/C=C/c2ccc(/C=C/C(=O)NO)cc2)ccc1O ?
> 10 µM

----------
- Tested on: Human liver cancer cell line HepG2
- assayComment: MTT cell viability assay, HepG2
- Format: cell-based
- settings: HepG2, 72 h, read-out: IC50 antiproliferative activity HepG2
propertyName: IC50 (µM)
One number for each entry, in µM.

What does the record list as IC50 for COc1cc(/C=C/C(=O)CC(=O)/C=C/c2ccc(O)c(OC)c2)ccc1O [Curcumin, reference compound] ?
18.3

----------
- System: Human glioma cell line SHG44
- assayComment: MTT cell viability assay, SHG44
- Type: cell-based
- settings: SHG-44, 72 h, read-out: IC50 antiproliferative activity SHG44
propertyName: IC50 (µM)
Give bare numbers, in µM.

What does the record list as IC50 for COc1cc(/C=C/C(=O)CC(=O)/C=C/c2ccc(O)c(OC)c2)ccc1O [Curcumin, reference compound] ?
24.6

----------
- assayComment: Pharmacokinetic study in mice
- Format: in vivo, SD mice
- settings: female, SD, mouse, plasma, oral, p.o. 10 mg/kg vs i.v. 1 mg/kg, read-out: F (oral bioavailability)
propertyName: bioavailability
Reply with the number and its unit after it.

What does the record list as bioavailability for COc1cc(/C=C/C(=O)CC(=O)/C=C/c2ccc(/C=C/C(=O)NO)cc2)ccc1O [DMC-HA] ?
40.2%

----------
- Tested on: Human glioblastoma cell line U87
- assayComment: MTT cell viability assay, U87
- Format: cell-based
- settings: 72 h, read-out: IC50 antiproliferative activity U87
propertyName: IC50

What does the record list as IC50 for COc1cc(/C=C/C(=O)CC(=O)/C=C/c2ccc(O)c(OC)c2)ccc1O [Curcumin, reference compound] ?
31.9 µM

----------
- assayComment: Hepatic microsome stability assay, mice
- Format: in vitro ADME
- settings: mouse liver microsomes, NADPH, 37°C, pH 7.4; read-out: Mice Liver Microsomal Stability T1/2
propertyName: half-life
Reply with the number and its unit after it.

What does the record list as half-life for COc1cc(/C=C/C(=O)CC(=O)/C=C/c2ccc(O)c(OC)c2)ccc1O [Curcumin, reference compound] ?
15.3 min

----------
- Test system: Human leukemia cell line K562
- assayComment: MTT cell viability assay, K562
- Assay type: cell-based
- settings: K562, MTT, 72 h, read-out: IC50 antiproliferative activity K562
propertyName: IC50
Reply with the number and its unit after it.

What does the record list as IC50 for COc1cc(/C=C/C(=O)CC(=O)/C=C/c2ccc(/C=C/C(=O)NO)cc2)ccc1O ?
1.95 µM

----------
- assayComment: Pharmacokinetic study in mice
- Assay type: in vivo, SD mice
- settings: female, SD, mouse, plasma, po, 10 mg/kg, p.o. 10 mg/kg, read-out: time of peak concentration (converted)
propertyName: Tmax

What does the record list as Tmax for COc1cc(/C=C/C(=O)CC(=O)/C=C/c2ccc(/C=C/C(=O)NO)cc2)ccc1O ?
~40 min

----------
- targetEntity: HDAC11 (Homo sapiens, UniProt Q96DB2)
- Sequence (Q96DB2 whole entry): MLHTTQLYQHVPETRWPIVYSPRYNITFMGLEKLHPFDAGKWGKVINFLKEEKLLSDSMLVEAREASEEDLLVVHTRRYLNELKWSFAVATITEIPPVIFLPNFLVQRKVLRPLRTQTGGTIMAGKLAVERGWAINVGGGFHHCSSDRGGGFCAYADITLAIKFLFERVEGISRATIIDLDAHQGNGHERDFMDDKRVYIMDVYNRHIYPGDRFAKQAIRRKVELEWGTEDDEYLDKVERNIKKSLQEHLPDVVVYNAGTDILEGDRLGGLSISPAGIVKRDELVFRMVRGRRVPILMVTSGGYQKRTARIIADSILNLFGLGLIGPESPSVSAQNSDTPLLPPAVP
propertyName: IC50

What does the record list as IC50 for COc1cc(/C=C/C(=O)CC(=O)/C=C/c2ccc(/C=C/C(=O)NO)cc2)ccc1O ?
> 10 µM

----------
- targetEntity: HDAC4 (Homo sapiens, UniProt P56524)
- Sequence (P56524 whole entry): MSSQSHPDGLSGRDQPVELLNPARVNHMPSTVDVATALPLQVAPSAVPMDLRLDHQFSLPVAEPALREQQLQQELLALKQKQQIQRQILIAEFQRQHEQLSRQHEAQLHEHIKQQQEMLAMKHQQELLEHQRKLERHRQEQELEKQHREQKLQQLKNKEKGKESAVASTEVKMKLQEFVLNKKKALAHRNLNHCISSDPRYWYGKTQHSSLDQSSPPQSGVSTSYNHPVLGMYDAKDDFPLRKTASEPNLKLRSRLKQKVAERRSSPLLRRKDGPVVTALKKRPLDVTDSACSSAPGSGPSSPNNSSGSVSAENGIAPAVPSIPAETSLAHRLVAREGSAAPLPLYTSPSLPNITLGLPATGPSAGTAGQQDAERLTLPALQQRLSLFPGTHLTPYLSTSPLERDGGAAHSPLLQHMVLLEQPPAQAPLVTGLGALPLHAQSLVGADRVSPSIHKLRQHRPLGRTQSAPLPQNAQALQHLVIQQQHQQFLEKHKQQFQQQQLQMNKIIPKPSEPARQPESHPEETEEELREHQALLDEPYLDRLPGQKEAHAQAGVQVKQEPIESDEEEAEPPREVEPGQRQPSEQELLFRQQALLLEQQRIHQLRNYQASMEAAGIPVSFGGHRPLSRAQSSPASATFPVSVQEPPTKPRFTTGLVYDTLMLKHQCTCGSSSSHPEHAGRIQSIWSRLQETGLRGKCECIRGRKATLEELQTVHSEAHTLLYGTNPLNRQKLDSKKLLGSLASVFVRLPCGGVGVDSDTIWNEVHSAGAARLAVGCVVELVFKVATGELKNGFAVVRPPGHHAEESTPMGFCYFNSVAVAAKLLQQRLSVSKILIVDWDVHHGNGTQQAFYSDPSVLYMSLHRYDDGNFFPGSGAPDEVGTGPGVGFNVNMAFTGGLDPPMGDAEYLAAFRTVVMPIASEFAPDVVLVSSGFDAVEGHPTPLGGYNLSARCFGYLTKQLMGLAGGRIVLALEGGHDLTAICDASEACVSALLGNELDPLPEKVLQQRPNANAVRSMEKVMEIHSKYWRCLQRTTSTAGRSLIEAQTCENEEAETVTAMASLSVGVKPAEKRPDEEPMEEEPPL
pIC50: −log10 of the molar value.
propertyName: pIC50

What does the record list as pIC50 for COc1cc(/C=C/C(=O)CC(=O)/C=C/c2ccc(/C=C/C(=O)NO)cc2)ccc1O ?
< 5.00

----------
- targetEntity: HDAC5 (Homo sapiens)
- Sequence (Q9UQL6 whole entry): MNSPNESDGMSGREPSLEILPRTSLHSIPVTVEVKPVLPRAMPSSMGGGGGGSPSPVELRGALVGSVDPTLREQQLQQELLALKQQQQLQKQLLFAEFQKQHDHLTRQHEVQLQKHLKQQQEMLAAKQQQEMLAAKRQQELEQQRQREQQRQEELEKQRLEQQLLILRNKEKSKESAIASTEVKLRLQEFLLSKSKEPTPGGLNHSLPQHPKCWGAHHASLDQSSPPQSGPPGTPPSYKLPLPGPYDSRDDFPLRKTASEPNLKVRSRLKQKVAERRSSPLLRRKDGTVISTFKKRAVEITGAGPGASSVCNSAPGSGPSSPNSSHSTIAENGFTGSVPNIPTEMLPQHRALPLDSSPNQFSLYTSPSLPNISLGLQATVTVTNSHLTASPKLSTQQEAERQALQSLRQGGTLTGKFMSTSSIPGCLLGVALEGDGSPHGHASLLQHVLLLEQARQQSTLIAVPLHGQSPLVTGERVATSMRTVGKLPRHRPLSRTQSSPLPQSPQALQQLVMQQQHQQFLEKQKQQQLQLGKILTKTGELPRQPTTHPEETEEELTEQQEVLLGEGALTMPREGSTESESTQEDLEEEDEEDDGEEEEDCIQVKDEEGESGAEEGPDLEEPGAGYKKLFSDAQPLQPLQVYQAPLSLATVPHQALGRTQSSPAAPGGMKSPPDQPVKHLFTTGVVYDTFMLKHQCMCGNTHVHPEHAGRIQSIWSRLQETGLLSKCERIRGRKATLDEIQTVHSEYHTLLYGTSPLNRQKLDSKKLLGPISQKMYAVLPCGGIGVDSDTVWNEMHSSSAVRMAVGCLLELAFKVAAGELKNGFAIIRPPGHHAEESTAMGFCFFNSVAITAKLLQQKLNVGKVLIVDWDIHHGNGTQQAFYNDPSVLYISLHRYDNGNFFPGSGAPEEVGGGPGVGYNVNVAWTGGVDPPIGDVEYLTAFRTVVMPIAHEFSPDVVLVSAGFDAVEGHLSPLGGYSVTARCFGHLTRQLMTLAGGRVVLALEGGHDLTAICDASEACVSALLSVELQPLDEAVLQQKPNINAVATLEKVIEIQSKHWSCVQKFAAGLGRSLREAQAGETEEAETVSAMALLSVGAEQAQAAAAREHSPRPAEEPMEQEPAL
pIC50: −log10 of the molar value.
propertyName: pIC50

What does the record list as pIC50 for COc1cc(/C=C/C(=O)CC(=O)/C=C/c2ccc(/C=C/C(=O)NO)cc2)ccc1O [DMC-HA] ?
< 5.00

----------
- assayComment: Pharmacokinetic study in mice
- Format: in vivo, SD mice
- settings: female, SD, mouse, iv, i.v. 1 mg/kg, plasma
propertyName: AUC(0-t) (µg·h/mL)
Give bare numbers, in µg·h/mL.

What does the record list as AUC(0-t) for COc1cc(/C=C/C(=O)CC(=O)/C=C/c2ccc(/C=C/C(=O)NO)cc2)ccc1O ?
0.493

----------
- assayComment: Hepatic microsome stability assay, human
- Type: in vitro ADME
- settings: human liver microsomes, NADPH, 37°C, pH 7.4
Kindly supply the reported microsomal CLint values for the records listed here.
Reply with the number and its unit after it.

COc1cc(/C=C/C(=O)CC(=O)/C=C/c2ccc(O)c(OC)c2)ccc1O [Curcumin, reference compound] : 82 µL/min/mg

With those in mind, consider the next compound.
What does the record list as microsomal CLint for COc1cc(/C=C/C(=O)CC(=O)/C=C/c2ccc(/C=C/C(=O)NO)cc2)ccc1O ?
17.5 µL/min/mg

----------
- targetEntity: HDAC10 (Homo sapiens, UniProt Q969S8)
- Sequence (Q969S8 1-669): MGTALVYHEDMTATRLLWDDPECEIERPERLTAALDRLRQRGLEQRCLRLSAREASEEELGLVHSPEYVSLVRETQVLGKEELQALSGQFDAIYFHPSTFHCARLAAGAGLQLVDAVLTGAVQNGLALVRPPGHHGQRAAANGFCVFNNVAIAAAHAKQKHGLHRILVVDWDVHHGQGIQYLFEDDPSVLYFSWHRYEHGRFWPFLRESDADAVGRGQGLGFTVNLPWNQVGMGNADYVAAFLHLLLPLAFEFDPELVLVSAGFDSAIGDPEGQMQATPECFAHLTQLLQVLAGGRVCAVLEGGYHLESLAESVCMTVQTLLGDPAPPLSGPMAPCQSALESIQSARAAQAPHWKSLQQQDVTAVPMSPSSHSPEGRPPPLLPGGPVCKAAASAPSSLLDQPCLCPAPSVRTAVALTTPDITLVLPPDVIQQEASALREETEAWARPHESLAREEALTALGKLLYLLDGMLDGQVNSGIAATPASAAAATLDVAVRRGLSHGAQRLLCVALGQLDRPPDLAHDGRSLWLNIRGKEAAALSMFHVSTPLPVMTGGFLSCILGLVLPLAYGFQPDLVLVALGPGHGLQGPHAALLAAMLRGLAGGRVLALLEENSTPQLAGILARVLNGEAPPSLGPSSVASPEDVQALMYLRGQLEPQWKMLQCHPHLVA
propertyName: pIC50
Give bare numbers, as −log10 of the molar value.

Please provide the recorded pIC50 for COc1cc(/C=C/C(=O)CC(=O)/C=C/c2ccc(/C=C/C(=O)NO)cc2)ccc1O , tested on HDAC10 (Homo sapiens, UniProt Q969S8).
5.08

----------
- Tested on: Human glioblastoma cell line U251
- assayComment: MTT cell viability assay, U251
- Type: cell-based
- settings: U-251, MTT, 72 h, read-out: IC50 antiproliferative activity U251
- Description: Cell viability was measured using the 3-(4,5-dimethylthiazol-2-yl)-2,5-diphenyltetrazolium bromide (MTT) assay and was expressed as a ratio to the absorbance value at 570 nm of the control cells.
propertyName: IC50 (µM)
One number for each entry, in µM.

What does the record list as IC50 for COc1cc(/C=C/C(=O)CC(=O)/C=C/c2ccc(/C=C/C(=O)NO)cc2)ccc1O [DMC-HA] ?
2.99

From: paper PMC8602566
